- EXPERIMENT NOTES: Inhibition of Platelet activating factor (PAF)- induced platelet aggregation in rabbit platelet rich plasma (PRP)
- Format: functional
READOUT: pIC50
Friendly reminder that pIC50 comes from taking -log10 of the concentration in mol/L.

# annotated cases, reported pIC50 shown
> print(dat)
                                   compound  readout  meas.value
1  Cc1nnc2n1-c1sc3c(c1C(c1ccccc1Cl)=NC2C)CCNC3 (configuration not stated)    pIC50        6.61
2  Cc1nnc2n1-c1sc3c(c1C(c1ccccc1Cl)=NC2C)CCN(Cc1cccc(/C(=N\OCCCCC(=O)OCc2ccccc2)c2cccnc2)c1)C3 (configuration not stated)    pIC50        7.01
3  CCOC(=O)CCCC/C=C(\c1ccc(CN2CCc3c(sc4c3C(c3ccccc3Cl)=NC(C)c3nnc(C)n3-4)C2)cc1)c1cccnc1 (configuration not stated)    pIC50        7.49
4  CCOC(=O)CCCCO/N=C(/c1cccnc1)c1cccc(CN2CCc3c(sc4c3C(c3ccccc3Cl)=NC(C)c3nnc(C)n3-4)C2)c1 (configuration not stated)    pIC50        7.33
5  CCOC(=O)CCCCO/N=C(/c1cccnc1)c1cccc(CCCCN2CCc3c(sc4c3C(c3ccccc3Cl)=NC(C)c3nnc(C)n3-4)C2)c1 (configuration not stated)    pIC50        7.27
6  Cc1nnc2n1-c1sc3c(c1C(c1ccccc1Cl)=NC2C)CCN(Cc1cccc(/C(=N\OCCCCC(=O)OCCCc2cccnc2)c2cccnc2)c1)C3 (configuration not stated)    pIC50        7.19

GET /value?item= CCOC(=O)CCCCO/N=C(/c1cccnc1)c1cccc(C(=O)N2CCc3c(sc4c3C(c3ccccc3Cl)=NC(C)c3nnc(C)n3-4)C2)c1 (configuration not stated) &field=pIC50 returns 7.22

* * *

# pIC50 listing for each entry below
- EXPERIMENT NOTES: Inhibition of Platelet activating factor (PAF)- induced platelet aggregation in rabbit platelet rich plasma (PRP)
- Type: functional
Friendly reminder that pIC50 comes from taking -log10 of the concentration in mol/L.

# annotated cases, reported pIC50 shown
> print(dat)
                                   compound  readout  meas.value
1  Cc1nnc2n1-c1sc3c(c1C(c1ccccc1Cl)=NC2C)CCN(Cc1cccc(/C(=N\OCCCCC(=O)O)c2cccnc2)c1)C3 (configuration not stated)    pIC50        6.01
2  Cc1nnc2n1-c1sc3c(c1C(c1ccccc1Cl)=NC2C)CCN(Cc1cccc(/C(=N\OCCCCC(=O)OCCN2CCOCC2)c2cccnc2)c1)C3 (configuration not stated)    pIC50        7.09

GET /value?item= CCOC(=O)CCCCO/N=C(/c1cccnc1)c1ccccc1C(=O)N1CCc2c(sc3c2C(c2ccccc2Cl)=NC(C)c2nnc(C)n2-3)C1 (configuration not stated) &field=pIC50 returns 6.70

GET /value?item= CCOC(=O)CCCCO/N=C(/c1cccnc1)c1cccc(CN2CCc3c(sc4c3C(c3ccccc3Cl)=NCc3nnc(C)n3-4)C2)c1 &field=pIC50 returns 6.70

GET /value?item= CCOC(=O)CCCCO/N=C(\c1ccc(C(=O)N2CCc3c(sc4c3C(c3ccccc3Cl)=NC(C)c3nnc(C)n3-4)C2)cc1)c1cccnc1 (configuration not stated) &field=pIC50 returns 7.00

GET /value?item= CCCNC(=O)CCCCO/N=C(/c1cccnc1)c1cccc(CN2CCc3c(sc4c3C(c3ccccc3Cl)=NC(C)c3nnc(C)n3-4)C2)c1 (configuration not stated) &field=pIC50 returns 7.15

GET /value?item= CCOC(=O)CCCCO/N=C(\c1ccc(COCC(=O)N2CCc3c(sc4c3C(c3ccccc3Cl)=NC(C)c3nnc(C)n3-4)C2)cc1)c1cccnc1 (configuration not stated) &field=pIC50 returns 7.22

Entry source: ChEMBL document CHEMBL1135874
